Target: human pancreas Glucokinase (GK) (Homo sapiens, UniProt P35557)
Construct: (His)6; made in house; host or cells: Escherichia coli
Sequence (P35557 1-465): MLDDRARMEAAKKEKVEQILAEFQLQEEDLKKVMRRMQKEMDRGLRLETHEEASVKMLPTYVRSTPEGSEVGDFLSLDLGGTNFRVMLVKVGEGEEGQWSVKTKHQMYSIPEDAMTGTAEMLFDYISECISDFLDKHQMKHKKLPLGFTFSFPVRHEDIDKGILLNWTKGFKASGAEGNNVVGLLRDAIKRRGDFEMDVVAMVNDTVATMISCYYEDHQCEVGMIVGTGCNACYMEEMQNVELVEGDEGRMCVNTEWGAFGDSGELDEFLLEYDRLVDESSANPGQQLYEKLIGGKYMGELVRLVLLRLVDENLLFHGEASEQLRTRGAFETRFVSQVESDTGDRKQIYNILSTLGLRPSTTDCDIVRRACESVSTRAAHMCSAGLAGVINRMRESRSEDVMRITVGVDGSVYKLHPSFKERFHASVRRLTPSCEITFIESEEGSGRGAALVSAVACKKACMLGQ
Assay: Glucokinase enzyme assay, pancreas GK
Format: biochemical
Conditions: concentration that produces 100% activation above the vehicle control
So basically: EC100% at 6 µM or higher? That is T. Lower than 6 µM? That is F.

Answered examples (10):
>>> print(df.to_string())
                                   compound                         target_under_test  group
0  O=C(CSC1C2=C(CCCC2)C(=O)N1Cc1cccnc1)Nc1ccccn1 (stereo not shown) [Compound 18]  human pancreas Glucokinase (GK) (Homo sapiens, UniProt P35557)      T
1  O=C(CSC1C2=C(CCCC2)C(=O)N1Cc1cccc2ccccc12)Nc1ccccn1 (stereo not shown) [Compound 17]  human pancreas Glucokinase (GK) (Homo sapiens, UniProt P35557)      T
2  O=C(CSC1C2=C(CCCC2)C(=O)N1Cc1ccc(F)cc1)Nc1ccc(C(=O)O)cn1 (stereo not shown) [Compound 21]  human pancreas Glucokinase (GK) (Homo sapiens, UniProt P35557)      T
3  O=C(CSC1C2=C(CCCC2)C(=O)N1Cc1ccc([N+](=O)[O-])cc1)Nc1ccccn1 (stereo not shown) [Compound 14]  human pancreas Glucokinase (GK) (Homo sapiens, UniProt P35557)      T
4  O=C(CSC1C2=C(CCCC2)C(=O)N1Cc1ccncc1)Nc1ccccn1 (stereo not shown) [Compound 19]  human pancreas Glucokinase (GK) (Homo sapiens, UniProt P35557)      F
5  COc1ccc(CN2C(=O)C3=C(CCCC3)C2SCC(=O)Nc2ccc(C)cn2)cc1OC (stereo not shown) [Compound 11]  human pancreas Glucokinase (GK) (Homo sapiens, UniProt P35557)      F
6  O=C(CSC1C2=C(CCCC2)C(=O)N1Cc1ccc(O)cc1)Nc1nccs1 (stereo not shown) [Compound 15]  human pancreas Glucokinase (GK) (Homo sapiens, UniProt P35557)      T
7  COC(=O)c1ccc(NC(=O)CSC2C3=C(CCCC3)C(=O)N2Cc2ccc(OC)cc2)nc1 (stereo not shown) [Compound 2]  human pancreas Glucokinase (GK) (Homo sapiens, UniProt P35557)      F
8  COc1ccc(CN2C(=O)C3=C(CCCC3)C2SCC(=O)Nc2ccc(C(N)=O)cn2)cc1OC (stereo not shown) [Compound 13]  human pancreas Glucokinase (GK) (Homo sapiens, UniProt P35557)      F
9  COc1ccc(CN2C(=O)C3=C(CCCC3)C2SCC(=O)Nc2ccccn2)cc1OC (stereo not shown) [Compound 10]  human pancreas Glucokinase (GK) (Homo sapiens, UniProt P35557)      F

Check this compound for EC100% at or above 6 µM: COC(=O)c1ccc(NC(=O)CSC2C3=C(CCCC3)C(=O)N2Cc2ccc(OC)c(OC)c2)nc1 (stereo not shown) [Compound 9] F

Could you please find out whether COc1ccc(CN2C(=O)C3=C(CCCC3)C2SCC(=O)Nc2nccs2)cc1OC (stereo not shown) [Compound 12] has EC100% that meets 6 µM or exceeds it? T

Check if EC100% >= 6 µM (inclusive). Item: COc1ccc(CN2C(=O)C3=C(CCC3)C2SCC(=O)Nc2ccccn2)cc1 (stereo not shown) [Compound 16] F
